# SARS-CoV 3CLpro (Severe acute respiratory syndrome coronavirus, UniProt P0C6X7): IC50 values follow

- ENTRY_SMILES: "O=C(Oc1cncc(Cl)c1)c1ccc2[nH]ccc2c1"
  IC50 [nM]: 405
- ENTRY_SMILES: "O=C(Oc1cncc(Cl)c1)c1cccc2c1CCN2"
  IC50 [nM]: 190
